Assay: in vivo
Settings: topical or ocular, 10 mg/kg
experimentalEndpoint: Cmax

>>> recordedvalue("O=C(C1CCCCC1)N1CC(=O)N2CCc3ccccc3C2C1 (stereo not shown)")
"107 ng/mL"

* * *

Assay: in vivo
Details: topical or ocular, 10 mg/kg
experimentalEndpoint: Tmax (h)

>>> recordedvalue("O=C(C1CCCCC1)N1CC(=O)N2CCc3ccccc3C2C1 (stereo not shown) [Praziquantel, praziquantel]")
7.01
